Would you kindly list Plasma (0.01 μM), activity in % of control for each of these compounds?
- subject of test: Dopamine beta hydroxylase (Homo sapiens, UniProt P09172)
- Construct: 125 μl of plasma; tissue Instituto Português do Sangue Transplantação; host or cells: human plasma from healthy donors
- assay details: Dopamine beta hydroxylase activity in human plasma
- Format: biochemical
- experimental parameters: inhibitor 0.01 μM

IN: I am curious: what Plasma (0.01 μM), activity in % of control value has been reported for Cn1c(CCC(=O)N2CCC[C@H]2CO)c2n(c1=S)C[C@@H](c1c(F)ccc(F)c1F)C2 [Example 267] ?
OUT: 90.8 % of control

IN: Another compound to check: Cn1c(CC(N)=O)c2n(c1=S)C[C@H](c1c(F)ccc(Br)c1F)C2 [Example 240]
OUT: 76.1 % of control

IN: And for [2H]C([2H])([2H])n1c(CC(=O)N[C@H]2CCOC2)c2n(c1=S)C[C@@]1(c3cc(Br)ccc3F)C[C@@H]21 [Example 461] ?
OUT: 45.6 % of control

IN: Same for CN(C(=O)Cc1c2n(c(=S)n1C)C[C@@]1(c3c(F)ccc(Cl)c3F)C[C@@H]21)C1COC1 [Example 403]
OUT: 29.9 % of control

IN: Also O=C(Cc1[nH]c(=S)n2c1C[C@@H](c1c(F)ccc(Cl)c1F)C2)NC1CCS(=O)(=O)CC1 [Example 112] ?
OUT: 9.9 % of control

IN: Another: Fc1cc(F)c(F)c([C@H]2Cc3c(CCc4ccncc4)[nH]c(=S)n3C2)c1F [Example 218]
OUT: 89.2 % of control

IN: Next: Cl.Cn1c(CC(=O)NCc2cnccn2)c2n(c1=S)C[C@@]1(c3cc(Cl)ccc3F)C[C@@H]21 [Example 335]
OUT: 44.9 % of control

----------
Would you kindly list Plasma (0.1 μM), activity in % of control for each of these compounds?
- subject of test: Dopamine beta hydroxylase (Homo sapiens, UniProt P09172)
- Construct: 125 μl of plasma; tissue Instituto Português do Sangue Transplantação; host or cells: human plasma from healthy donors
- assay details: Dopamine beta hydroxylase activity in human plasma
- Type: biochemical
- experimental parameters: inhibitor 0.1 μM

IN: Please report the recorded Plasma (0.1 μM), activity in % of control for "CN(C(=O)Cc1[nH]c(=S)n2c1C[C@H](c1c(F)ccc(F)c1F)C2)C1COC1" .
OUT: 48.5 % of control

IN: Same question for O=C(Cc1[nH]c(=S)n2c1C[C@H](c1c(F)c(F)cc(F)c1F)C2)NC1CCCCC1O (stereo partly shown) please.
OUT: 29.1 % of control

IN: And what about the compound "O=C(Cc1[nH]c(=S)n2c1[C@@H]1C[C@]1(c1cc(Br)ccc1F)C2)NCCc1ccccn1" ?
OUT: 18.2 % of control

IN: Another: "O=C(Cc1[nH]c(=S)n2c1C[C@@H](c1c(F)ccc(Cl)c1F)C2)NC1CCS(=O)(=O)CC1"
OUT: 0 % of control

----------
Provide the reported Plasma (0.1 μM), activity in % of control of each item.
- subject of test: Dopamine beta hydroxylase (Homo sapiens, UniProt P09172)
- Construct: 125 μl of plasma; tissue Instituto Português do Sangue Transplantação; host or cells: human plasma from healthy donors
- Sequence (P09172 40-617 limits assumed): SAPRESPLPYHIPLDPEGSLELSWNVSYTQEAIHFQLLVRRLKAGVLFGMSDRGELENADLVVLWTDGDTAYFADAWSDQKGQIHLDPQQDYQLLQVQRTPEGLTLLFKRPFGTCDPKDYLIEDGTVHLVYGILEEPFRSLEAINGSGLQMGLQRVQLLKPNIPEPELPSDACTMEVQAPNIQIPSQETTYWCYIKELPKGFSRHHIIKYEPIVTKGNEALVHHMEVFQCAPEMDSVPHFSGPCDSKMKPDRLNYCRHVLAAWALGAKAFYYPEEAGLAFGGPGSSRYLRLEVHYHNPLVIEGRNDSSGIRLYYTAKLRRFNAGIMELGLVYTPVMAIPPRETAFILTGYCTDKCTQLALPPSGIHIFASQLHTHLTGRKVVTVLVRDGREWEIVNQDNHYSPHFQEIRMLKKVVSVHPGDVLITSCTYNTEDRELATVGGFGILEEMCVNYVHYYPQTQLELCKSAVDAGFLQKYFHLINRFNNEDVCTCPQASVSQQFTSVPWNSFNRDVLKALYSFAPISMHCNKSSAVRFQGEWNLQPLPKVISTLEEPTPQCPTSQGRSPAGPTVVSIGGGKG
- assay details: Dopamine beta hydroxylase activity in human plasma
- Format: biochemical
- experimental parameters: inhibitor 0.1 μM

IN: Name the recorded Plasma (0.1 μM), activity in % of control for "Cn1c(CC(=O)N[C@H]2CCOC2)c2n(c1=S)C[C@H](c1c(F)ccc(Cl)c1F)C2" .
OUT: 19.3 % of control

IN: Same question, "Cn1c(CC(=O)NC2COC2)c2n(c1=S)C[C@H](c1c(F)ccc(Cl)c1F)C2" this time
OUT: 11.7 % of control

IN: Request: "Cn1c(CC(=O)N[C@H]2CCOC2)c2n(c1=S)C[C@@H](c1c(F)c(F)cc(F)c1F)C2"
OUT: 71.5 % of control

IN: What do we get for "Cn1c(CC(=O)N2CCOCC2)c2n(c1=S)C[C@@]1(c3cc(Br)ccc3F)C[C@@H]21" ?
OUT: 23.9 % of control

IN: Then this molecule: "C[C@@H](NC(=O)Cc1[nH]c(=S)n2c1C[C@H](c1c(F)ccc(Br)c1F)C2)C1CCCCC1"
OUT: 83.8 % of control

IN: And the next one, "CN(C(=O)Cc1[nH]c(=S)n2c1C[C@@H](c1c(F)ccc(Br)c1F)C2)C1COC1" ?
OUT: 14.7 % of control

IN: Try this molecule too: "Cn1c(CC(=O)N[C@H]2CCOC2)c2n(c1=S)C[C@@]1(c3cc(Cl)ccc3F)C[C@@H]21"
OUT: 18.0 % of control

IN: Same question for "CN(CCc1[nH]c(=S)n2c1C[C@@H](c1c(F)ccc(Cl)c1F)C2)C(=O)N1CCCC1" please.
OUT: 54.9 % of control

IN: Also "CN(C(=O)Cc1[nH]c(=S)n2c1C[C@H](c1c(F)ccc(Br)c1F)C2)C1CCCCC1" ?
OUT: 62.3 % of control

IN: Continue with "CN(C(=O)Cc1[nH]c(=S)n2c1C[C@H](c1c(F)ccc(F)c1F)C2)C1CCOCC1"
OUT: 50.1 % of control

IN: Field entry: "Cl.Fc1cc(F)c(F)c([C@H]2Cc3c(CN4CCCC4)[nH]c(=S)n3C2)c1F"
OUT: 73.5 % of control

IN: Lookup CN(C(=O)Cc1c2n(c(=S)n1C)C[C@@]1(c3c(F)ccc(Cl)c3F)C[C@@H]21)C1CCOC1 (stereo partly drawn)
OUT: 10.0 % of control

IN: Also, "CCOC(=O)Cc1[nH]c(=S)n2c1[C@@H]1C[C@]1(c1cc(F)cc(Cl)c1)C2" please.
OUT: 62.1 % of control

IN: Likewise for "O=C(Cc1[nH]c(=S)n2c1C[C@@H](c1c(F)ccc(Br)c1F)C2)N1CCSCC1" ?
OUT: 21.5 % of control

IN: Same again, this time with "Cn1c(CC(=O)N[C@H]2CCOC2)c2n(c1=S)C[C@@]1(c3c(F)ccc(Cl)c3F)C[C@@H]21"
OUT: 3.0 % of control

IN: Field entry: "CN(C(=O)Cc1c2n(c(=S)n1C)C[C@H](c1c(F)ccc(Cl)c1F)C2)C1COC1"
OUT: 5.8 % of control

IN: // next record "Cn1c(CC(=O)NC2COC2)c2n(c1=S)C[C@@]1(c3cc(Cl)ccc3F)C[C@@H]21"
OUT: 9.2 % of control

IN: Try this molecule next: "O=C(O)Cc1[nH]c(=S)n2c1C[C@@H](c1c(F)ccc(Cl)c1F)C2"
OUT: 42.3 % of control

IN: And then "O=C(Cc1[nH]c(=S)n2c1[C@@H]1C[C@]1(c1cc(Br)ccc1F)C2)N1CCN(c2ccccn2)CC1" , what is it?
OUT: 29.0 % of control

IN: Entry "[2H]C([2H])([2H])n1c(CC(=O)NC2CCOCC2)c2n(c1=S)C[C@@]1(c3cc(Br)ccc3F)C[C@@H]21" please
OUT: 3.7 % of control

IN: Then what about the molecule "O=C(CCc1[nH]c(=S)n2c1C[C@H](c1c(F)c(F)cc(F)c1F)C2)NCC1CC1" ?
OUT: 75.8 % of control

----------
- subject of test: Dopamine beta hydroxylase (Homo sapiens)
- Construct: 125 μl of plasma; tissue Instituto Português do Sangue Transplantação; host or cells: human plasma from healthy donors
- assay details: Dopamine beta hydroxylase activity in human plasma
- Type: biochemical
- experimental parameters: inhibitor 0.1 μM
- Procedure: Furthermore, the ability of a compound to inhibit DβH activity may be assessed in human plasma using the following assay. […]. Dopamine beta hydroxylase activity in human plasma was measured by the method of Nagatsu and Udenfriend (Nagatsu, T. and Udenfriend, S. “Photometric assay of dopamine-μ-hydroxylase activity in human blood.” Clin. Chem. 18(9) 980-983, 1972) with minor modifications. […] Absorbance was linear with octopamine concentration from 0.5 to 20 μg/ml. […]
recorded metric: Plasma (0.1 μM), activity in % of control

IN: Reported Plasma (0.1 μM), activity in % of control, molecule CN1CC(NC(=O)Cc2c3n(c(=S)n2C)C[C@H](c2c(F)ccc(Br)c2F)C3)CCC1=O (some centres unmarked) : ____
OUT: 7.3 % of control

IN: // next record "O=C(Cc1[nH]c(=S)n2c1[C@@H]1C[C@]1(c1cc(Br)ccc1F)C2)NCC(F)(F)F"
OUT: 17.8 % of control

IN: Next up: "Cn1ccnc1CCc1[nH]c(=S)n2c1C[C@H](c1c(F)c(F)cc(F)c1F)C2"
OUT: 92.3 % of control

IN: Do the same for "O=C(Cc1[nH]c(=S)n2c1C[C@@H](c1c(F)ccc(Br)c1F)C2)N1CCS(=O)(=O)CC1" please
OUT: 6.8 % of control

IN: // same read-out, input: "Cn1c(CCC(=O)NCC#N)c2n(c1=S)C[C@@H](c1c(F)ccc(F)c1F)C2"
OUT: 53.8 % of control

IN: "O=C(O)Cc1[nH]c(=S)n2c1C[C@H](c1c(F)cccc1F)C2" , same question.
OUT: 81.0 % of control

IN: Same for "Fc1ccc(Br)c(F)c1[C@H]1Cc2c(CCN[C@@H]3CCOC3)[nH]c(=S)n2C1"
OUT: 74.9 % of control

IN: What do we get for "O=C(Cc1[nH]c(=S)n2c1C[C@H](c1c(F)ccc(Br)c1F)C2)N[C@@H]1CCOC1" ?
OUT: 68.8 % of control

IN: Consider next the molecule "Fc1ccc(Br)cc1[C@]12C[C@H]1c1c(CCNCC(F)(F)F)[nH]c(=S)n1C2" in the same way.
OUT: 22.3 % of control

IN: // next record "Cn1c(CC(=O)N[C@@H]2CCOC2)c2n(c1=S)C[C@@]1(c3c(F)ccc(Cl)c3F)C[C@@H]21"
OUT: 11.2 % of control

IN: Same again, this time with "CN(CCc1[nH]c(=S)n2c1[C@@H]1C[C@]1(c1cc(Br)ccc1F)C2)C1CCCC1.F"
OUT: 19.9 % of control

IN: Input "[2H]C([2H])([2H])n1c(CC(=O)N[C@@H]2CCOC2)c2n(c1=S)C[C@@]1(c3cc(Br)ccc3F)C[C@@H]21"
OUT: 9.0 % of control

IN: Same for "O=C(Cc1[nH]c(=S)n2c1[C@@H]1C[C@]1(c1cc(Cl)ccc1F)C2)N1CCCCC1"
OUT: 52.1 % of control

IN: Ok, now "[2H]C([2H])([2H])n1c(CC(=O)NC2CCOCC2)c2n(c1=S)C[C@H](c1c(F)ccc(Cl)c1F)C2"
OUT: 1.5 % of control

IN: # repeat for "O=C(Cc1[nH]c(=S)n2c1C[C@H](c1c(F)c(F)cc(F)c1F)C2)NC1CCOCC1"
OUT: 56.8 % of control

IN: Now consider "Cn1c(CC(=O)NC2COC2)c2n(c1=S)C[C@@H](c1c(F)ccc(F)c1F)C2" and answer again.
OUT: 49.0 % of control

IN: Another molecule: "Cn1cc(CNC(=O)Cc2c3n(c(=S)n2C)C[C@@]2(c4cc(Cl)ccc4F)C[C@@H]32)cn1"
OUT: 4.3 % of control
